Origin of measurements: PubChem BioAssay AID2685

# assay overview: qHTS Assay for Lipid Storage Modulators in Drosophila S3 Cells
# assay conditions: BODIPY lipid droplet fluorescence, 18-24 h, cells fed with added oleic acid; series mostly up to 46.1 µM
# From the text: NIH Molecular Libraries Probe Production Centers Network [MLPCN] NIH Chemical Genomics Center [NCGC] […] Triacsin C (Sigma-Aldrich T-4540), an inhibitor of long-chain fatty acyl CoA synthetase that blocks synthesis of triglycerides, was used as a positive control for lipid under-storage. […] Fluorescence was detected by excitation of the fluorophores with a 488-nm laser on an Acumen Explorer (TTP Lab Tech). […] Cells were detected using channel 3 (575-640 nm) with 5-um width and 100-um depth filters. […]
The whole screen tested about 320,000 compounds, of which about 2,100 (0.66%) were called active. Roughly 53% stayed inconclusive and do not appear here. Calls come from the whole dose curve; as a rule, active = well fitted inhibition curve with a large enough effect in the signal ratio, with a control signal flat (not every such curve was filed as active); inconclusive = small, poorly fitted or top-dose-only effect, or effect the other way, or a change in a side signal; inactive = flat fitted curve, though single readings scatter; the % refers to the signal ratio. The full list was thinned out, with actives kept by preference.
The reply should name one outcome from active, inactive

Before answering, review these 5 worked examples.
COc1cc(Cl)cc(C(=O)O)c1OCC(=O)O : inactive
N#C/C(=C\c1c(N2CCC(C(N)=O)CC2)nc2ccccn2c1=O)C(=O)NC1CCCCC1 : active
N#C/C(=C\c1c(N2CCCCCC2)nc2ccccn2c1=O)C(N)=O : inactive
Cc1n[nH]c(C)c1S(=O)(=O)N1CCc2ccccc2C1 : inactive
O=C1Nc2ccc(Cl)cc2C(C#CC2CC2)(C(F)(F)F)O1 (stereo unspecified) : active

Next up:
Outcome? N#C/C(=C\c1c(N2CCCCCC2)nc2ccccn2c1=O)C(=O)NC1CCS(=O)(=O)C1 (stereo unspecified)
inactive

---

# assay overview: qHTS Assay for Lipid Storage Modulators in Drosophila S3 Cells; note: potency is the fitted concentration of half-maximal effect
# assay conditions: BODIPY lipid droplet fluorescence, 18-24 h, cells fed with added oleic acid; series mostly up to 46.1 µM
About 2,100 (0.66%) of roughly 320,000 compounds were called active. Inconclusive results (about 53%) are left out. The sample as a whole holds a higher share of actives than the screen did.
measurement name: Potency

Examples from the recorded data:
Cc1ccc(NC(NC(=O)c2cccs2)C(Cl)(Cl)Cl)cc1C (stereo unspecified) : inactive
CCc1c(C)nc(N)n2c(SCC(=O)NC3CCCCC3)nnc12 : 1.3 µM (active)
O=c1c(Cc2c(F)cccc2Cl)c(O)ccn1Cc1ccc(F)cc1 : inactive
CCOC(=O)CSc1ccc(S(=O)(=O)N(C)C2CCCCC2)cc1[N+](=O)[O-] : 25.9 µM (active)
CCOC(=O)CSc1ccc(S(=O)(=O)N2CCCCC2)cc1[N+](=O)[O-] : inactive
Nc1nc(SCc2ccccc2Cl)nc2nc3c(cc12)CCCC3 : inactive

Suppose we examine the compound O=c1c(Cc2c(F)cccc2Cl)c(O)ccn1CCc1ccccn1 ; what Potency value has been reported?
14.1 µM (active)

Fill blank: measured Potency of the compound O=c1c(Cc2c(F)cccc2Cl)c(O)ccn1C1CC1 is ____.
inactive

Potency for COc1ccc(-n2nnnc2SCC(=O)NNC(=O)c2ccc([N+](=O)[O-])cc2)cc1 ?
inactive

# Potency lookup, item Cc1cc(C)c(S(=O)(=O)NCCCn2ccnc2)cc1C
inactive

Look up Potency: Cc1cc(Cl)c(Cl)cc1S(=O)(=O)NCCCn1ccnc1
6.51 µM (active)

---

Recorded cell number change, one value per entry.
# assay overview: qHTS Assay for Lipid Storage Modulators in Drosophila S3 Cells;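 for cell number change: cells counted by Cell Tracker Red CMTPX staining in the red channel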
# assay conditions: BODIPY lipid droplet fluorescence, 18-24 h, cells fed with added oleic acid; measured here: cell count max response
The campaign covered roughly 320,000 compounds. About 2,100 (0.66%) were called active. Roughly 53% stayed inconclusive and do not appear here. This excerpt belongs to a sample that is enriched for actives.
I only need the number, in %, no unit after it.

COC(=O)c1ccccc1CSc1nsc(C)c1C#N : 26.2
Cc1cc(=O)n2[nH]nnc2n1 : -0.264
Cc1cc(Cl)c(S(=O)(=O)NC(C(=O)O)c2ccccc2)cc1OCC(N)=O (stereo unspecified) : 6.34
O=C(NNC(=S)NC1CC2C=CC1C2)c1cccnc1 (stereo unspecified) : 2.14
CCc1nnc(NC(=O)CSc2nnc(CSc3nc(C)cc(C)n3)o2)s1 : 9.83

What does the data say about its cell number change? Entry: CC1=NN(C(C#N)c2ccc(F)cc2)C(c2ccccc2)C1 (stereo unspecified)
-11.4

Find the recorded cell number change belonging to CCCN1CCC(=NNc2ccc(S(N)(=O)=O)cc2[N+](=O)[O-])CC1 and report it.
-0.104

Record request: cell number change value, item O=C(CN(C(=O)CCC(=O)Nc1nccs1)c1ccc2c(c1)OCO2)NCC1CCCO1 (stereo unspecified)
2.62

Report cell number change for Cc1ccc(NC(=O)c2cccs2)cc1[N+](=O)[O-] please.
-1.31

Can you look up the measured cell number change of O=C(CSc1nnnn1-c1ccccc1)N1N=CCC1c1ccccc1 (stereo unspecified) for me?
-5.17

Look up cell number change: COCCN1C(=O)N[C@@H](c2ccco2)C(C(C)=O)=C1C
3.8
